The measured values listed here are drawn from the supplement of paper PMC8975748.

test system: Saccharomyces cerevisiae BY4741 SeMeCo community; assay: z-score of subpopulation abundance vs DMSO median, subpopulation auxotrophic for U; higher = larger share of this subpopulation than in DMSO controls; details: 10 µM; 24 h; SM minimal medium; subpopulation (auxotrophy): U
Structures can show the parent of a compound that is named as a salt.
Short version: z-score of subpopulation abundance at least -0.04 is yes (1), less is no (0).

CCCCCOc1ccccc1/C(=C\SC)n1ccnc1 [Neticonazole Hydrochloride]: no (0)
Clc1ccc(C(Cn2ccnc2)OCc2ccc(Sc3ccccc3)cc2)c(Cl)c1 (centres undefined) [Fenticonazole Nitrate]: yes (1)

In the following, a different compound is considered.
## Input Check if z-score of subpopulation abundance >= -0.04 (inclusive). Item: "N#C/C(=C1/SC[C@@H](c2ccc(Cl)cc2Cl)S1)n1ccnc1"
## Output no (0)
